- PROTOCOL_TEXT: P-glycoprotein substrates identified in KB-3-1 adenocarcinoma cell line, qHTS therapeutic library screen (AID 1346986); note: nearly all actives have a fitted effect of over 60% in size
- PROTOCOL_CONDITIONS: KB-3-1 parental cells viability, CellTiter-Glo, 72 h; series mostly up to 44.5 µM
Records with an inconclusive call do not appear. The source made the active and inactive calls. Calls come from the whole dose curve; as a rule, active = well fitted inhibition curve with a large enough effect; inconclusive = small, poorly fitted or top-dose-only effect; inactive = no such curve, though single readings can be large or run the other way.
MEASURED_PROPERTY: outcome

Please review the entries below; each comes with its answer.
>>> observed_value("C[C@H]1CC(=O)C2=C(C1)C(O)C(O)[C@@]1(O)[C@H]2C(=O)c2cccc(O)c2[C@@H]1O (stereo partly drawn)")
"inactive"
>>> observed_value("COc1cnc(-n2cnc(C)n2)c2[nH]cc(C(=O)C(=O)N3CCN(C(=O)c4ccccc4)CC3)c12")
"inactive"
>>> observed_value("NC[C@H]1CCC[C@@H](CNC(=O)[C@@H](Cc2c[nH]c3ccccc23)NC(=O)N2CCC3(C=Cc4ccccc43)CC2)C1")
"inactive"
>>> observed_value("C=CC(C)(C)C12Nc3c(ccc4c3OC(C)(C)C=C4)C1(O)CC1C(=O)N3CCCC3C(=O)N12 (stereo not drawn)")
"inactive"

Q) Please give the measured outcome for this compound: CC1(C)OC(=O)C=C[C@@]2(C)C1CC(=O)[C@]1(C)C2CC[C@@]2(C)[C@H](c3ccoc3)OC(=O)[C@H]3O[C@]321 (stereo partly drawn)
A) inactive

Q) Tell me the measured outcome of COc1ccc(O[C@@H]2O[C@H](CO)[C@@H](O)[C@H](O)[C@H]2O)cc1OC , please.
A) inactive

Q) Entry COc1cccc(OC)c1-c1nc(C(=O)N[C@@H](CC(C)C)C(=O)O)cn1-c1ccnc2cc(Cl)ccc12 : reported outcome = ?
A) inactive

---

- Tested on: CAOV3
- PROTOCOL_TEXT: Primary qHTS to identify gynecologic anti-cancer compounds using libraries of approved drugs and bioactive compounds (AID 1345084); note: % is set by controls: 0 for no effect and ±100 for the full control effect; nearly all actives have a fitted effect of over 55% in size
- PROTOCOL_CONDITIONS: Gynecologic cancer cell panel viability, ATPlite luminescence, 48 h; series mostly up to 57.5 µM
Records with an inconclusive call do not appear. Activity calls are given as the source filed them. The call rests on the fitted dose curve; in most records, active means well fitted cell-killing curve with a large enough effect; inconclusive means small, poorly fitted or top-dose-only effect, or effect the other way; inactive means flat fitted curve, though single readings scatter.
MEASURED_PROPERTY: activity change, negative = cytotoxicity

>>> observed_value("C/C=C/C=C/C(O)=C1/C(=O)[C@]2(C)C(=O)[C@@](C)(O)[C@H]1[C@H]([C@@]1(C)OC(=O)C(C)=C1O)[C@H]2C(=O)CC/C=C/C")
"inactive"
>>> observed_value("C[C@@H](c1ccccc1)N(C(N)=NC#N)c1cccc2ncccc12")
"inactive"
>>> observed_value("CC(C)c1ccc2c(c1)C(O)CC1C(C)(C(=O)O)CCCC21C (stereo not given)")
"inactive"
>>> observed_value("O=C(O)c1ccc(NC(=O)[C@H](CC2CCCC2)n2cnc(C(F)(F)F)c2)nc1")
"inactive"
>>> observed_value("C=CCC1=C[C@]2(OC)[C@H](C)[C@@H](c3ccc(OC)c(OC)c3)O[C@]2(OC)CC1=O")
"inactive"

Q) GET /values?readout=activity change, negative = cytotoxicity&system=CAOV3&item= Cn1nccc1-c1ccccc1Oc1ccc(S(=O)(=O)Nc2nccs2)cc1C#N
A) inactive

Q) Write down the reported activity change, negative = cytotoxicity of CCCNCCOc1ccc(NC(=O)c2c[nH]c3c2C(=O)CCC3)cc1F , test system: CAOV3.
A) inactive

Q) State its activity change, negative = cytotoxicity on CAOV3: C/C=C(\C)C(=O)OC[C@H]1O[C@@H](O[C@H]2[C@@H](O[C@H]3O[C@H](COC(=O)/C(C)=C/C)[C@@H](O)[C@H](O)[C@H]3O[C@@H]3O[C@H](COC(=O)/C(C)=C/C)[C@@H](O)[C@H](OC(=O)/C(C)=C/C)[C@H]3O)O[C@H](COC(=O)/C(C)=C/C)[C@@H](O)[C@@H]2O)[C@H](O)[C@@H](O)[C@@H]1O
A) -1.73% [at 11.6 µM] (inactive)

Q) Query the reported activity change, negative = cytotoxicity for CAOV3; item: CC1CC(=O)[C@]2(O)C(C(=O)OCCc3ccc(O)cc3)=CO[C@@H](O[C@@H]3O[C@H](CO)[C@@H](O)[C@H](O)[C@H]3O)[C@H]12 (stereo not given in full)
A) inactive

Q) Requested read-out activity change, negative = cytotoxicity, target or system CAOV3, entry COC(=O)CCC1(C)C(C(C)(C)O)C(O)CC2(C)Oc3c(C)c4c(c(OC)c3CC21)C(=O)OC4 (stereo not given)
A) inactive

Q) Please provide the recorded activity change, negative = cytotoxicity for C=C1[C@H](OC(C)=O)[C@H]2[C@@H](OC(C)=O)C(C)C[C@]2(OC(C)=O)C(=O)[C@H](C)/C=C/C(C)(C)C(=O)[C@H](OC(=O)C(C)C)[C@H]1OC(C)=O (stereo not given in full) , tested on CAOV3.
A) inactive

---

- Test system: Zika virus NS2B-NS3 protease (linked construct)
- PROTOCOL_TEXT: Confirmatory screen NINDS AMC qHTS for Zika virus inhibitors (AID 1347152); note: nearly all actives have a fitted effect of over 70% in size
- PROTOCOL_CONDITIONS: Purified linked NS2B-NS3, AMC substrate fluorescence; series mostly up to 56.6 µM
Results filed as inconclusive are left out. Activity calls are given as the source filed them. Calls come from the whole dose curve; as a rule, active = well fitted inhibition curve with a large enough effect; inconclusive = small, poorly fitted or top-dose-only effect; inactive = flat fitted curve, though single readings scatter.
Output constraint: value belongs to Yes (active), No (inactive)

As a guide, the following entries are already answered.
>>> label("C=C1C2CCC3C(CCC4[C@@]3(C)CCC[C@@]4(C)C(=O)O)(C2)[C@@H]1OC(=O)/C(C)=C\\C (some centres undefined)")
"Yes"
>>> label("CCc1nnc(NS(=O)(=O)c2ccc(NC(=S)NC(=O)/C=C/c3ccc(F)cc3)cc2)s1")
"Yes"
>>> label("CC1(C)CC=C(c2cnc3ccccc3c2)c2cc(C(=O)Nc3ccc(C(=O)O)cc3)ccc21")
"Yes"
>>> label("COc1cnc(-c2ccc(Cn3c(CC(C)(C)C(=O)O)c(SC(C)(C)C)c4cc(OC[C@@H]5Cc6ccccc6N5C(C)=O)ccc43)cc2)nc1")
"Yes"
>>> label("COc1cc(C)c(C(=O)OC2C(C)OC(OC3CCC(C)C4C3C=C(C)C3/C(C)=C\\CC/C(C)=C/C5(C)C=C(C(=O)O)C(C)CC56OC(=O)/C(=C(\\O)C34C)C6=O)C(O)C2O)c(OC)c1 (centres undefined)")
"Yes"

Q) Could you check what this test reported for Cc1ccc([C@@H]2CC=C(C(=O)O)[C@H](c3ccc(C(C)(C)C)cc3)N2S(=O)(=O)c2ccc(C)cc2)cc1 ?
A) Yes

---

- System: HACAT
- PROTOCOL_TEXT: qHTS assay to identify novel small-molecules to repurpose for Merkel cell carcinoma treatment (AID 1296009); note: nearly all actives have a fitted effect of over 60% in size
- PROTOCOL_CONDITIONS: MCC and control cell lines, CellTiter-Glo viability, 72 h; at 44.8 µM (top of the series) unless noted
Records with an inconclusive call do not appear. Active and inactive are the calls of the source. Calls come from the whole dose curve; as a rule, active = well fitted inhibition curve with a large enough effect; inconclusive = small, poorly fitted or top-dose-only effect; inactive = flat fitted curve, though single readings scatter.
MEASURED_PROPERTY: outcome

>>> observed_value("COc1c2c(c(C)c3c1C(=O)OC3)OC1(C)CC(O)C34OC(O)(CCC3(C)C1C2)OC4(C)C (stereo not drawn)")
"inactive [at 17.4 µM]"
>>> observed_value("C[C@]12CCC[C@](C)(C(=O)O)C1[C@@H](O)[C@@H](O)C13CC(CCC12)C(CO)(O[C@@H]1O[C@H](CO)[C@@H](O)[C@H](O)[C@H]1O)C3 (stereo partly drawn)")
"inactive [at 17.4 µM]"
>>> observed_value("CC(CNS(=O)(=O)C(C)C)c1ccc(-c2ccc(C#N)cc2)cc1 (stereo not drawn)")
"inactive"
>>> observed_value("Cc1cc(OCCN2CCOCC2)nn1-c1ccc2ccccc2c1")
"inactive"
>>> observed_value("C=C[C@]1(C)C[C@@H](OC(=O)CSC2C[C@H]3CC[C@@H](C2)N3C)[C@]2(C)[C@H](C)CC[C@]3(CCC(=O)[C@H]32)[C@@H](C)[C@@H]1O (stereo partly drawn)")
"inactive"
>>> observed_value("NC(=O)[C@@H]1CC[C@H](c2ccc(OCc3ccccc3F)cc2)N1")
"inactive"

Q) Find the measured outcome: item CC1(C)OC(=O)C=C[C@@]2(C)C1CC(=O)[C@]1(C)C2CC[C@@]2(C)[C@H](c3ccoc3)OC(=O)[C@H]3O[C@]321 (stereo partly drawn) , target or system HACAT.
A) inactive [at 17.4 µM]

Q) HACAT / outcome / C=C1CC[C@H]2[C@@](C)(CCC(O)[C@@]2(C)CO)[C@@H]1/C=C/C(=C\C(=O)O)C(=O)O (stereo partly drawn) : value?
A) inactive

---

- Test system: Zika virus NS2B-NS3 protease (unlinked complex)
- PROTOCOL_TEXT: Primary screen GU Rhodamine qHTS for Zika virus inhibitors: Unlinked NS2B-NS3 protease assay (AID 1347159); note: nearly all actives have a fitted effect of over 60% in size
- PROTOCOL_CONDITIONS: Recombinant ZIKV NS2B-NS3 protease, Rhodamine110 substrate fluorescence; series mostly up to 107 µM
Records with an inconclusive call do not appear. Activity calls are given as the source filed them. Calls follow the shape of the dose curve; as a rule, active = well fitted inhibition curve with a large enough effect; inconclusive = small, poorly fitted or top-dose-only effect; inactive = no such curve, though single readings can be large or run the other way.
Return exactly one item of TRUE for active, FALSE for inactive

The examples below pair each entry with its known result.
>>> label("CCc1cc(CC[C@]2(C3CCCC3)CC(O)=C(Cc3nc4nc(C)cc(C)n4n3)C(=O)O2)cc(CC)n1")
"FALSE"
>>> label("CC1(C)CC[C@]2(C(=O)O[C@@H]3O[C@H](CO[C@@H]4O[C@H](CO)[C@@H](O)[C@H](O)[C@H]4O)[C@@H](O)[C@H](O[C@@H]4O[C@H](CO)[C@@H](O)[C@H](O)[C@H]4O)[C@H]3O)CC[C@]3(C)C(=CCC4[C@@]5(C)CC[C@H](O[C@@H]6OC[C@@H](O)[C@H](O)[C@H]6O)[C@@](C)(C(=O)O)C5CC[C@]43C)[C@@H]2C1 (some centres undefined)")
"FALSE"
>>> label("COc1ccc(O[C@@H]2O[C@H](CO)[C@@H](O)[C@H](O)[C@H]2O)cc1OC")
"FALSE"
>>> label("C=C1CC23CC1CCC2C12OC(=O)C(C)(C(O)CC1O)C2C3C(=O)O (centres undefined)")
"FALSE"
>>> label("CN(C)c1ccc(C2O[C@@H](c3ccccc3)C[C@H](c3ccccc3)O2)cc1 (some centres undefined)")
"FALSE"

Q) For COc1cc2c(cc1O)C(c1ccc(O)cc1)C(C)C(C)C2 (centres undefined) , what call appears in the results of this test?
A) TRUE

Q) Could you please tell me the result logged for Cc1c(Cc2ccc3ccccc3n2)c2cc(F)ccc2n1CC(=O)O in this assay?
A) TRUE

Q) Field: outcome | Entry: C[C@@]12CC3(S(=O)(=O)O)OC(O1)[C@]1(COC(=O)c4ccccc4)[C@H]3C[C@]21O[C@@H]1O[C@H](CO)[C@@H](O)[C@H](O)[C@H]1O
A) FALSE

Values were extracted from PubChem BioAssay (NCATS).
